Origin of the recorded values: patent US20260020566A1

test system: Phakopsora pachyrhizi; assay: Phakopsora pachyrhizi (Soybean rust) soybean leaf disk preventive fungicidal activity; assay type: in vivo; conditions: Phakopsora pachyrhizi, foliar, single compound, 1 g a.i./ha, approx. 12 dpi, read-out: Observed Activity (%)
Readout name: inhibition at 1 g/ha (%)
Please give a number only; it is taken to be in %.

Illustrative cases are given below, each with its answer.
Molecule	Readout units	inhibition at 1 g/ha
CCOC(=O)c1cnn(Cc2ccc(O/C=C(\OCC)C(F)(F)F)cc2)c1 [reference compound]	%	38
COC(=O)NCc1cc(-c2ccn(-c3c(F)cc(C4CC4)cc3F)n2)ccc1C [reference compound]	%	12

Fill in the blank: the reported inhibition at 1 g/ha of CCOC(=O)c1cnn(Cc2ccc(OCC3(C(F)(F)F)OCCO3)cc2)c1 is ____.
35

Thanks! And Fc1ccccc1C1(Nc2ncc(-c3nnc(C(F)F)o3)cn2)CC1 [Compound A-1.4] ?
12
